# procedureText: Pharmacokinetics of Compounds 22, 27 and 40 in SD rats after oral administration for 7 consecutive days
# Format: in vivo
# conditionDetails: male, Sprague-Dawley, rat, plasma, po, 30 mg/kg, male SD rats, oral 30 mg/kg once a day, Day 1; median
quantity: Tmax
Answer with the value and then the unit.

Recorded results for 2 molecules are shown here.
| compoundString | Tmax |
| --- | --- |
| Nc1nc(NCCc2ccc(NC3COC3)cc2)nc2nc(-c3ccco3)nn12 | 4 h |
| Cn1nnc(-c2ccc(CCNc3nc(N)n4nc(-c5ccco5)nc4n3)cc2)n1 | 3 h |

Kindly review the next molecule as well.
Exam item: Which Tmax is listed for "COCCNc1ccc(CCNc2nc(N)n3nc(-c4ccco4)nc3n2)cc1" ?
Marked response: 2 h
